Tested on: Fibrinogen (Alexa647-labelled)
procedure_details: fibrinogen binders on compound microarrays, profiling panel, artefact control for SMM control-protein annotation, biochemical, small-molecule microarray, 635/667 nm fluorescence (AID 1131);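 note: z-score merges 667 nm fluorescence with per-spot signal-to-noise over triplicate slides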
experimental_conditions: fibrinogen-A647 binding fluorescence, higher = more signal
Below, each entry is listed alongside its reported composite z-score.
readout_label: composite z-score

COCCCNC(=O)[C@@]1(c2ccc([N+](=O)[O-])cc2)CC(=O)N(C2CCCCC2)[C@@H]1c1ccc(CO)cc1I: 0.014
CC(C)N1C(=O)[C@@]2(Cc3ccccc31)c1ccccc1C(=O)N(Cc1ccccc1C(F)(F)F)[C@H]2c1ccc(CO)cc1: -0.0628
C=C(C)C1CN([C@H](CO)c2ccccc2)C(=O)/C1=C\c1ccccc1 (stereo not given in full): 0.237
[N-]=[N+]=NCc1ccccc1C[C@]1(C(=O)N2CCCCC2)COC(c2ccc(OCCCO)cc2)=N1: 0.932
Cc1ccc(S(=O)(=O)N2[C@@H](c3ccccc3)C(C(=O)O)=C[C@H]2C(C)(C)C)cc1: 0.651
CC1(C)OB(/C=C\CC(OC(=O)c2ccncc2)c2ccccc2)OC1(C)C (stereo not given): -0.857
C[C@@]1([C@@H](NS(=O)(=O)c2cccc3cccnc23)c2ccc(-c3ccccc3)cc2)C[C@H]1C1CCCCC1: -0.744
CO[C@H]1O[C@H](CO)[C@@H](OC(=O)Nc2cccc(F)c2)[C@H](OC(=O)Nc2ccc3c(c2)OCO3)[C@@H]1OC(=O)Nc1ccc2c(c1)OCO2: 0.973
COC(=O)[C@@]1(Cc2ccc(F)cc2)[C@H]2c3cc(C(=O)N(C)C)n(CCF)c3C[C@H]2CN1C(=O)c1ccccc1: 0.911
CC1C2C(CCCO)=CC(C3C(=O)N(C(N)=O)C(=O)C23)N1Cc1cccc(OC(F)(F)F)c1 (stereo not given): 0.646

----------
tested_target: Follistatin (Homo sapiens)
procedure_details: follistatin binders on small-molecule microarrays, primary screen, biochemical, small-molecule microarray, 635/667 nm fluorescence (AID 1132)
experimental_conditions: FST binding, 635 nm fluorescence, higher = more signal
# maps each entry to its composite z-score
readout_label: composite z-score

COCCOC(=O)N1C(=O)[C@@]2(c3cc(C#CCNC(N)=O)ccc31)[C@H](c1ccc(O)cc1)N1[C@H](c3ccccc3)[C@H](c3ccccc3)OC(=O)[C@H]1[C@@H]2C(=O)N1CCc2cc(OC)c(OC)cc2C1: 1.36
C#CCN(C(=O)OC(C)(C)C)[C@H](CO)c1ccccc1: -0.0032
C=CCOC(=O)[C@@H]1[C@H]2C(=O)O[C@H](c3ccccc3)[C@H](c3ccccc3)N2[C@H](c2ccc(OCCOC(=O)[C@H]3C[C@H]4C(=O)N[C@@H](CCCCN(C)C)C(=O)N4[C@H]3c3cccc(OCCO)c3)cc2)[C@@]12C(=O)Nc1ccccc12: 0.519
Cc1ccc(S[C@]2(C(=O)NCc3ccccc3)CC(=O)N(Cc3ccccc3C(F)(F)F)[C@@H]2c2ccc(CO)cc2I)cc1: 0.0443
COCCOC(=O)N1C(=O)[C@@]2(c3cc(C#CC4=CCCCC4)ccc31)[C@H](C(=O)N1CCCCCCC1)[C@H]1C(=O)O[C@H](c3ccccc3)[C@H](c3ccccc3)N1[C@@H]2c1ccccc1OCCO: 1.42
COCCCNC(=O)[C@@]1(c2ccc([N+](=O)[O-])cc2)CC(=O)N(C2CCCCC2)[C@@H]1c1ccc(CO)cc1I: 1.45
